Measured values drawn from patent EP2380575B1 for this set.

- experimentalDetails: Trial B: pharmacokinetics following single and repeated doses in healthy young male subjects
- Assay type: in vivo, humans
- conditionNotes: male, human, in vivo, oral, 800 mg, last dose of 8-day repeated 800 mg o.d. eslicarbazepine acetate, n=6; read-out: Mean AUC0-24h (%CV)
endpointName: AUC(0-t)

input: Indicate the recorded AUC(0-t) value for this compound: NC(=O)N1c2ccccc2C[C@H](O)c2ccccc21 [eslicarbazepine]
output: 268 µg·h/mL

###

- experimentalDetails: Trial B: pharmacokinetics following single and repeated doses in healthy young male subjects
- Type: in vivo, humans
- conditionNotes: male, human, plasma, oral, 20 mg, single dose 20 mg eslicarbazepine acetate, n=6; read-out: Mean Cmax (%CV)
endpointName: Cmax

input: # return recorded Cmax for input NC(=O)N1c2ccccc2C[C@H](O)c2ccccc21 [eslicarbazepine]
output: 300 ng/mL

###

- experimentalDetails: Trial B: pharmacokinetics following single and repeated doses in healthy young male subjects
- Type: in vivo, humans
- conditionNotes: male, human, in vivo, oral, 600 mg, single dose 600 mg eslicarbazepine acetate, n=6; read-out: Mean AUC0-24h (%CV)
endpointName: AUC(0-t) (µg·h/mL)
Numeric answer only, unit µg·h/mL assumed.

input: Supply recorded AUC(0-t) for NC(=O)N1c2ccccc2C[C@H](O)c2ccccc21 [eslicarbazepine] here.
output: 120

###

- experimentalDetails: Trial B: pharmacokinetics following single and repeated doses in healthy young male subjects
- Format: in vivo, humans
- conditionNotes: male, human, plasma, oral, 2400 mg, single dose 2400 mg eslicarbazepine acetate, n=6; read-out: Mean apparent t½ (%CV) (converted)
endpointName: half-life (h)
Could you give me the number in h? Just the number is fine.

input: Write down half-life measured for item NC(=O)N1c2ccccc2C[C@H](O)c2ccccc21 [eslicarbazepine]
output: 11.1

###

- experimentalDetails: Trial B: pharmacokinetics following single and repeated doses in healthy young male subjects
- Format: in vivo, humans
- conditionNotes: male, human, in vivo, oral, 100 mg, single dose 100 mg eslicarbazepine acetate, n=6; read-out: Mean AUC0-24h (%CV)
endpointName: AUC(0-t) (ng·h/mL)
Report only the number, with the unit ng·h/mL understood.

input: In one line, give reported AUC(0-t) of the entry NC(=O)N1c2ccccc2C[C@H](O)c2ccccc21 [eslicarbazepine] .
output: 16400

###

- experimentalDetails: Trial B: pharmacokinetics following single and repeated doses in healthy young male subjects
- Type: in vivo, humans
- conditionNotes: male, human, plasma, oral, 20 mg, single dose 20 mg eslicarbazepine acetate, n=6; read-out: Mean apparent t½ (%CV) (converted)
endpointName: half-life
Show the value, then the unit it is measured in.

input: Give the reported half-life for this compound. NC(=O)N1c2ccccc2C[C@H](O)c2ccccc21 [eslicarbazepine]
output: 9.1 h

###

- experimentalDetails: Trial B: pharmacokinetics following single and repeated doses in healthy young male subjects
- Type: in vivo, humans
- conditionNotes: male, human, in vivo, oral; single dose 1200 mg eslicarbazepine acetate, n=6; read-out: Median tmax (range)
endpointName: Tmax (h)
# output: bare number, implied unit h

input: State, in one line, measured Tmax of NC(=O)N1c2ccccc2C[C@H](O)c2ccccc21 [eslicarbazepine]
output: 4

###

- experimentalDetails: Trial B: pharmacokinetics following single and repeated doses in healthy young male subjects
- Format: in vivo, humans
- conditionNotes: male, human, in vivo, oral; single dose 100 mg eslicarbazepine acetate, n=6; read-out: Median tmax (range)
endpointName: Tmax (h)
Please state the figure in h; there is no need to write the unit.

input: State its Tmax for this compound: NC(=O)N1c2ccccc2C[C@H](O)c2ccccc21 [eslicarbazepine]
output: 1.5
